- method.summary: Drug repurposing screens with cells derived from glioblastoma tumor samples (AID 1345199); note: potency is the fitted concentration of half-maximal effect; nearly all actives have a fitted effect of over 40% in size
- condition.notes: GBM patient neurospheres viability, ATP luminescence, 48 h; tumour line A
Inconclusive results are not listed. Calls of active or inactive are those of the source. Calls come from the whole dose curve; as a rule, active = well fitted inhibition curve with a large enough effect; inconclusive = small, poorly fitted or top-dose-only effect; inactive = flat fitted curve, though single readings scatter.
Kindly state Potency for each of the entries shown.

# Potency lookup, item `CC(C)OC(=O)C(C)(C)Oc1ccc(C(=O)c2ccc(Cl)cc2)cc1`
11.2 µM (active)

# Potency lookup, item CN1[C@@H]2CCC[C@@H]1CC(NC(=O)c1nn(C)c3ccccc13)C2 (some centres undefined)
12.6 µM (active)

# Potency lookup, item `Clc1ccc(Cn2c(CN3CCCC3)nc3ccccc32)cc1`
2.51 µM (active)

# Potency lookup, item `COc1cc2ncnc(Nc3ccc(F)c(Cl)c3)c2cc1OCCCN1CCOCC1`
5.62 µM (active)

Where these numbers come from: PubChem BioAssay (NCATS)
